Value source: PubChem BioAssay AID1919004

# Tested on: 883617-216-R-J1-PDC complex spheroids, growth, % test/control;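 note: exposure lasted 7 days after dosing on day 3 of spheroid growth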
# Experiment notes: Anticancer human tumor 883617-216-R-J1-PDC patient-derived bladder carcinoma cell line growth inhibition [AhR]
# Run conditions: second compound 3.16 µM; first compound 0.0316 µM; hits give low values
Under this convention, class 1 denotes viability, T/C strictly below 80% and class 0 denotes viability, T/C at or above 80%.

Qu. I wonder whether COc1cccc2c1C(=O)c1c(O)c3c(c(O)c1C2=O)CC(O)(C(=O)CO)CC3OC1CC(N)C(O)C(C)O1 (stereo not given) + Cc1ccccc1N=Nc1ccc(NC(=O)c2ccnn2C)c(C)c1 has viability, T/C below 80%. Can you tell?
Ans. class 1

Qu. Is viability, T/C of COc1ccc([C@@H](O)c2cc(-c3ncnc4cc(N5CCOCC5)ccc34)c(F)cc2Cl)nn1 + Cc1ccccc1N=Nc1ccc(NC(=O)c2ccnn2C)c(C)c1 strictly below 80%?
Ans. class 1

Qu. is_below(viability, T/C, 80%) for Cn1ncnc1C1c2n[nH]c(=O)c3cc(F)cc(c23)NC1c1ccc(F)cc1 (stereo not given) + Cc1ccccc1N=Nc1ccc(NC(=O)c2ccnn2C)c(C)c1 ?
Ans. class 0

Qu. Would you kindly verify if viability, T/C of NS(=O)(=O)OCC1CC(n2ccc3c(NC4CCc5ccccc54)ncnc32)CC1O (stereo not given) + Cc1ccccc1N=Nc1ccc(NC(=O)c2ccnn2C)c(C)c1 is strictly less than 80%?
Ans. class 0

Qu. Given O=C(C=Cc1cccc(S(=O)(=O)Nc2ccccc2)c1)NO + Cc1ccccc1N=Nc1ccc(NC(=O)c2ccnn2C)c(C)c1 , is recorded viability, T/C strictly lower than 80%?
Ans. class 1

Qu. Take the compound CC1COCCN1c1cc(C2(S(C)(=N)=O)CC2)nc(-c2ccnc3[nH]ccc23)n1 (stereo not given) + CC(CO)NC(=O)c1cc(-c2ccc(Cl)cc2)nn(-c2cnn(C)c2)c1=O and say whether its viability, T/C is less than 80%.
Ans. class 0

Qu. Lab note: confirm whether the reported viability, T/C for this compound is below 80%, equality not counting. compound: Nc1ccn(C2OC(CO)C(O)C2(F)F)c(=O)n1 (stereo not given) + Cc1cncc(-c2nc(NCCc3c[nH]c4ccccc34)c3ncn(C(C)C)c3n2)c1
Ans. class 1

Qu. Input COc1cccc2c1C(=O)c1c(O)c3c(c(O)c1C2=O)CC(O)(C(=O)CO)CC3OC1CC(N)C(O)C(C)O1 (stereo not given) + Cc1cncc(-c2nc(NCCc3c[nH]c4ccccc34)c3ncn(C(C)C)c3n2)c1 ; condition: viability, T/C strictly below 80%. Does it hold?
Ans. class 1

Qu. # check: viability, T/C < 80% for CC[C@@]1(O)C(=O)OCc2c1cc1n(c2=O)Cc2cc3c(CN(C)C)c(O)ccc3nc2-1 + CC(CO)NC(=O)c1cc(-c2ccc(Cl)cc2)nn(-c2cnn(C)c2)c1=O
Ans. class 0

Qu. Determine whether this compound shows viability, T/C lower than 80% (ties excluded): Nc1ncn(C2CC(O)C(CO)O2)c(=O)n1 (stereo not given) + Cc1ccccc1N=Nc1ccc(NC(=O)c2ccnn2C)c(C)c1
Ans. class 1

Qu. Hello, I'm reviewing records and need to know if viability, T/C of CC(C)c1c(-c2ccccc2)nc2c(C#N)c[nH]n2c1=O + CC(CO)NC(=O)c1cc(-c2ccc(Cl)cc2)nn(-c2cnn(C)c2)c1=O is below 80%. Could you check?
Ans. class 0

Qu. Consider the compound Nc1ncn(C2CC(O)C(CO)O2)c(=O)n1 (stereo not given) + Cc1cncc(-c2nc(NCCc3c[nH]c4ccccc34)c3ncn(C(C)C)c3n2)c1 . Is its viability, T/C strictly less than 80%?
Ans. class 0

Qu. Consider the compound Nc1ccccc1NC(=O)c1ccc(CNC(=O)OCc2cccnc2)cc1 + Cc1cncc(-c2nc(NCCc3c[nH]c4ccccc34)c3ncn(C(C)C)c3n2)c1 . Is its viability, T/C strictly less than 80%?
Ans. class 0

Qu. Check if viability, T/C falls below 80% for CC1COCCN1c1cc(-c2ccnn2C)c2ccnc(-c3ccn[nH]3)c2n1 (stereo not given) + Cc1cncc(-c2nc(NCCc3c[nH]c4ccccc34)c3ncn(C(C)C)c3n2)c1 .
Ans. class 0

Qu. Dear colleague, could you confirm whether viability, T/C of COc1cc(Nc2ncc3c(n2)-c2ccc(Cl)cc2C(c2c(F)cccc2OC)=NC3)ccc1C(=O)O + Cc1ccccc1N=Nc1ccc(NC(=O)c2ccnn2C)c(C)c1 falls below 80%? Thanks.
Ans. class 1

Qu. Is viability, T/C of COc1cc(C2c3cc4c(cc3C(OC3OC5COC(C)OC5C(O)C3O)C3COC(=O)C23)OCO4)cc(OC)c1O (stereo not given) + Cc1cncc(-c2nc(NCCc3c[nH]c4ccccc34)c3ncn(C(C)C)c3n2)c1 strictly below 80%?
Ans. class 0

Qu. Lab note: confirm whether the reported viability, T/C for this compound is below 80%, equality not counting. compound: COc1cc(Nc2ncc3c(n2)-c2ccc(Cl)cc2C(c2c(F)cccc2OC)=NC3)ccc1C(=O)O + Cc1cncc(-c2nc(NCCc3c[nH]c4ccccc34)c3ncn(C(C)C)c3n2)c1
Ans. class 0

Qu. Lab note: confirm whether the reported viability, T/C for this compound is below 80%, equality not counting. compound: COc1cc(Nc2ncc3c(n2)-c2ccc(Cl)cc2C(c2c(F)cccc2OC)=NC3)ccc1C(=O)O + CC(CO)NC(=O)c1cc(-c2ccc(Cl)cc2)nn(-c2cnn(C)c2)c1=O
Ans. class 1

Qu. Answer whether the compound CC[C@@]1(O)C(=O)OCc2c1cc1n(c2=O)Cc2cc3c(CN(C)C)c(O)ccc3nc2-1 + Cc1cncc(-c2nc(NCCc3c[nH]c4ccccc34)c3ncn(C(C)C)c3n2)c1 has viability, T/C strictly less than 80%
Ans. class 0

Qu. Below 80% on viability, T/C? Entry CC[C@@]1(O)C(=O)OCc2c1cc1n(c2=O)Cc2cc3c(CN(C)C)c(O)ccc3nc2-1 + Cc1ccccc1N=Nc1ccc(NC(=O)c2ccnn2C)c(C)c1
Ans. class 1

Qu. Check if viability, T/C falls below 80% for CC1COCCN1c1cc(-c2ccnn2C)c2ccnc(-c3ccn[nH]3)c2n1 (stereo not given) + CC(CO)NC(=O)c1cc(-c2ccc(Cl)cc2)nn(-c2cnn(C)c2)c1=O .
Ans. class 1

Qu. Please let me know if CC(C)c1c(-c2ccccc2)nc2c(C#N)c[nH]n2c1=O + Cc1ccccc1N=Nc1ccc(NC(=O)c2ccnn2C)c(C)c1 shows viability, T/C below 80%.
Ans. class 0

Qu. Criterion: viability, T/C strictly below 80%. Is it met by CC1COCCN1c1cc(-c2ccnn2C)c2ccnc(-c3ccn[nH]3)c2n1 (stereo not given) + Cc1ccccc1N=Nc1ccc(NC(=O)c2ccnn2C)c(C)c1 ?
Ans. class 1
